Reference for the values: patent US12404270B2

Target: human recombinant LPA2 expressed in CHO cells (Homo sapiens)
Construct: expressed in transfected cells; host or cells: CHO (CHO-hLPA2 cell line)
Assay: FLIPR calcium mobilization assay, LPA2 antagonism in CHO-hLPA2 cells
Type: cell-based
Details: CHO-hLPA2 cells, inhibition of LPA EC80 Ca2+ response, 30 min pre-incubation; read-out: LPA2 IC50
reported-property: IC50

Answered examples (2):
>  <compound>
COC(=O)c1cccc2c(N[C@@H](C)CN3CCN(S(=O)(=O)c4ccc(-c5ccno5)s4)CC3)ncnc12

>  <IC50>
0.01 to 0.1 µM

$$$$
>  <compound>
COC(=O)c1cccc2c(N[C@@H](C)CN3CCN(S(=O)(=O)c4cnc(-c5ccccc5)s4)CC3)ncnc12

>  <IC50>
0.01 to 0.1 µM

$$$$

Q: # IC50 lookup, item COC(=O)c1cccc2c(N[C@@H](C)CN3CCN(S(=O)(=O)c4cnc(NC(C)=O)s4)CC3)ncnc12
A: 0.01 to 0.1 µM

Q: Same lookup for C[C@@H](CN1CCN(S(=O)(=O)c2cc(-c3ccno3)cs2)CC1)Nc1ncnc2c(C(F)(F)F)cccc12 , please.
A: 0.01 to 0.1 µM

Q: Same lookup for COC(=O)Nc1nc(C)c(S(=O)(=O)N2CCN(C[C@H](C)Nc3ncnc4c([N+](=O)[O-])cccc34)CC2)s1 , please.
A: < 1 µM

Q: Same lookup for Cc1cc(-c2ncc(S(=O)(=O)N3CCN(C[C@H](C)Nc4ncnc5c(C(F)(F)F)cccc45)CC3)s2)on1 , please.
A: 0.01 to 0.1 µM

----------
Catalogue of pIC50 values
Target: human recombinant LPA2 expressed in CHO cells (Homo sapiens, UniProt Q9HBW0)
Construct: expressed in transfected cells; host or cells: CHO (CHO-hLPA2 cell line)
Sequence (Q9HBW0 whole entry): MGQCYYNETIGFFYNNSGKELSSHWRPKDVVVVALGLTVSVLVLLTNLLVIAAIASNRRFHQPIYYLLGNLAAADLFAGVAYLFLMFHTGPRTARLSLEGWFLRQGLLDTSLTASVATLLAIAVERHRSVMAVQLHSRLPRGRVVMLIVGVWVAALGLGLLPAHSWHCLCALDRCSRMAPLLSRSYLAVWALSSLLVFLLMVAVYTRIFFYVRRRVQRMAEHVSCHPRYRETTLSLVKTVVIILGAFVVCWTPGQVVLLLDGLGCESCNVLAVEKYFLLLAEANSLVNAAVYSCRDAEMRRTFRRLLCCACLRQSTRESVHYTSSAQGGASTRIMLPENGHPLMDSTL
Experiment: FLIPR calcium mobilization assay, LPA2 antagonism in CHO-hLPA2 cells
Type: cell-based
Details: CHO-hLPA2 cells, inhibition of LPA EC80 Ca2+ response, 30 min pre-incubation; read-out: LPA2 IC50
pIC50: −log10 of the molar value.

Answered examples (8):
>  <compound>
Cc1noc(-c2ccc(S(=O)(=O)N3CCN(C[C@H](C)Nc4ncnc5c(C(F)(F)F)cccc45)CC3)o2)c1C

>  <pIC50>
7.00 to 8.00

$$$$
>  <compound>
COC(=O)Nc1nc(C)c(S(=O)(=O)N2CCN(C[C@H](C)Nc3ncnc4c(Br)cccc34)CC2)s1

>  <pIC50>
7.00 to 8.00

$$$$
>  <compound>
C[C@@H](CN1CCN(S(=O)(=O)c2ccc(-c3ccn[nH]3)o2)CC1)Nc1ncnc2c(C(F)(F)F)cccc12

>  <pIC50>
> 6.00

$$$$
>  <compound>
Cc1noc(-c2ccc(S(=O)(=O)N3CCN(C[C@H](C)Nc4ncnc5c(C(=O)N6CCC[C@@H]6C(F)(F)F)cccc45)CC3)s2)c1C (racemic)

>  <pIC50>
> 8.00

$$$$
>  <compound>
CC(=O)Nc1cc(F)c(S(=O)(=O)N2CCN(C[C@H](C)Nc3ncnc4c(C(F)(F)F)cccc34)CC2)cc1Cl

>  <pIC50>
> 6.00

$$$$
>  <compound>
Cc1cc(-c2ccc(S(=O)(=O)N3CCN(C[C@H](C)Nc4ncnc5c(N(C)C)cccc45)CC3)s2)on1

>  <pIC50>
> 8.00

$$$$
>  <compound>
COCC(=O)Nc1ncc(S(=O)(=O)N2CCN(C[C@H](C)Nc3ncnc4c(C(F)(F)F)cccc34)CC2)s1

>  <pIC50>
> 6.00

$$$$
>  <compound>
COC(=O)Nc1nc(C)c(S(=O)(=O)N2CCN(C[C@H](C)Nc3nc(C)nc4c(C(F)(F)F)cccc34)CC2)s1

>  <pIC50>
7.00 to 8.00

$$$$

Q: # get_value(readout= pIC50, system= human recombinant LPA2 expressed in CHO cells (Homo sapiens, UniProt Q9HBW0)) for COCc1nc(N[C@@H](C)CN2CCN(S(=O)(=O)c3ccc(-c4onc(C)c4C)s3)CC2)c2cccc(C(F)(F)F)c2n1
A: > 6.00

Q: Same lookup for Cc1noc(-c2ccc(S(=O)(=O)N3CCN(C[C@H](C)Nc4ncnc5c(C(=O)N6CCC[C@H]6C(F)(F)F)cccc45)CC3)s2)c1C (racemic) , please.
A: > 8.00

Q: Same lookup for COC(=O)Nc1nc(C)c(S(=O)(=O)N2CCN(C[C@H](C)Nc3nc(C(F)(F)F)nc4ccccc34)CC2)s1 , please.
A: > 6.00

Q: Same lookup for Cc1n[nH]c(-c2ccc(S(=O)(=O)N3CCN(C[C@H](C)Nc4ncnc5c(C(F)(F)F)cccc45)CC3)o2)c1C , please.
A: 7.00 to 8.00

Q: Same lookup for CC(=O)Nc1ncc(S(=O)(=O)N2CCN(C[C@H](C)Nc3nc(C4CC4)nc4c(C)cccc34)CC2)s1 , please.
A: > 6.00

----------
Biological target: human recombinant LPA2 expressed in CHO cells (Homo sapiens, UniProt Q9HBW0)
Construct: expressed in transfected cells; host or cells: CHO (CHO-hLPA2 cell line)
Assay: FLIPR calcium mobilization assay, LPA2 antagonism in CHO-hLPA2 cells
Assay type: cell-based
Settings: same in vitro assay as Table 2; read-out: IC50 on LPA2 receptor
reported-property: IC50

Q: # IC50 lookup, item COC(=O)Nc1nc(C)c(S(=O)(=O)N2CCN(C[C@H](C)Nc3ncnc4ncccc34)CC2)s1 [comparative Example A, reference compound]
A: > 3 µM

----------
Molecular target: human recombinant LPA2 expressed in CHO cells (Homo sapiens, UniProt Q9HBW0)
Construct: expressed in transfected cells; host or cells: CHO (CHO-hLPA2 cell line)
Test: FLIPR calcium mobilization assay, LPA2 antagonism in CHO-hLPA2 cells
Format: cell-based
Conditions: CHO-hLPA2 cells, inhibition of LPA EC80 Ca2+ response, 30 min pre-incubation; read-out: LPA2 IC50
reported-property: IC50

Answered examples (6):
>  <compound>
CC(=O)Nc1ccc(S(=O)(=O)N2CCN(C[C@H](C)Nc3ncnc4c(C(F)(F)F)cccc34)CC2)s1

>  <IC50>
< 1 µM

$$$$
>  <compound>
Cc1noc(-c2ccc(S(=O)(=O)N3CCN(C[C@H](C)Nc4ncnc5c(C(=O)N6CCC[C@@H]6C)cccc45)CC3)s2)c1C (racemic)

>  <IC50>
< 0.01 µM

$$$$
>  <compound>
COC(=O)Nc1nc(C)c(S(=O)(=O)N2CCN(C[C@H](C)Nc3nc(C4CC4)nc4ccccc34)CC2)s1

>  <IC50>
< 1 µM

$$$$
>  <compound>
Cc1cc(-c2ccc(S(=O)(=O)N3CCN(C[C@H](C)Nc4ncnc5c(C(F)(F)F)cccc45)CC3)o2)on1

>  <IC50>
0.01 to 0.1 µM

$$$$
>  <compound>
Cc1cc(-c2ccc(S(=O)(=O)N3CCN(C[C@H](C)Nc4ncnc5c(OC(=O)N(C)C)cccc45)CC3)s2)on1

>  <IC50>
0.01 to 0.1 µM

$$$$
>  <compound>
COCC(=O)Nc1nc(C)c(S(=O)(=O)N2CCN(C[C@H](C)Nc3ncnc4c(C(F)(F)F)cccc34)CC2)s1

>  <IC50>
< 1 µM

$$$$

Proceed to the following item.
Q: # IC50 lookup, item CC(=O)Nc1ncc(S(=O)(=O)N2CCN(C[C@H](C)Nc3nc(C)nc4c(C(F)(F)F)cccc34)CC2)s1
A: 0.01 to 0.1 µM
